Values compiled from PubChem BioAssay AID504332.

Target: Histone-lysine N-methyltransferase EHMT2 (Homo sapiens)
Assay: qHTS Assay for Inhibitors of Histone Lysine Methyltransferase G9a; note: nearly all actives have a fitted effect of over 75% in size
Conditions: G9a H3K9 monomethylation, AlphaScreen, 2 h; series mostly up to 59 µM
Hit rate of the full screen: of about 350,000 compounds, about 31,000 (8.9%) were called active. Not shown: some 15% with an inconclusive outcome. Calls come from the whole dose curve; as a rule, active = well fitted inhibition curve with a large enough effect; inconclusive = small, poorly fitted or top-dose-only effect; inactive = no such curve, though single readings can be large or run the other way. The list comes from a sample in which actives are over-represented; it also holds close analogues and randomly drawn compounds.
Answer with one of the outcomes label 1 for active, label 0 for inactive

Hey, what did the test say about `Brc1ccc2c(c1)NC(c1cccnc1)=NC(c1ccccc1)=N2` ?
label 0

And the next one, `O=C(/C=C/c1ccc([N+](=O)[O-])o1)NNC(=O)c1ccc(F)cc1` ?
label 0

And the next one, `Cc1ccc(C)c(S(=O)(=O)n2nc(C)c(S(=O)(=O)N3CCC(C)CC3)c2C)c1` ?
label 0

And the next one, `CCOc1ccccc1NC(=O)Cn1c(=O)n(Cc2ccco2)c(=O)c2sc3ccccc3c21` ?
label 0

And the next one, `CCOc1ccccc1/C=c1\sc2nc(-c3ccco3)nn2c1=O` ?
label 1

And the next one, `Cc1ccccc1Cn1nc(C)c(NC(=O)c2cc(-c3ccc(F)cc3)on2)c1C` ?
label 0

And the next one, `Cc1ccc(Cl)cc1N1CCN(C(=O)c2cnc3c(-c4ccc(F)cc4)c(C)nn3c2C)CC1` ?
label 0

And the next one, `Cc1cccc(N=C2NN=C(c3c[nH]c4ccccc34)CS2)c1` ?
label 0

And the next one, `CSc1ccccc1NC(=O)c1cnc2sc(C)cn2c1=O` ?
label 0

And the next one, `Cc1n[nH]c(=O)nc1N/N=C/c1cccs1` ?
label 0

And the next one, `COc1ccc(NC(=O)CCCc2nnc3n(CCC(C)C)c(=O)c4sccc4n23)c(OC)c1` ?
label 0

And the next one, `C[N+](C)(C)CCNC(=O)c1cc[n+](Cc2ccccc2)c(/C=N/O)c1` ?
label 1

And the next one, `CCOC(=O)c1ccccc1NC(=O)c1sc2nc(-c3ccc(F)cc3)cn2c1C` ?
label 0

And the next one, `COC(=O)c1sc(N2CCN(Cc3ccccc3)CC2)nc1N` ?
label 0

And the next one, `COC(=O)c1sc(=S)n(-c2ccccc2)c1N` ?
label 1

And the next one, `CCOC(=O)/C=c1\s/c(=C\c2ccccc2OC)c(=O)n1CC(=O)N1CCOCC1` ?
label 0
